# MEASURED ON: Human HER3, endogenous, on human cancer cell lines (SK-Br-3, MCF7, BT-474) (human, UniProt P21860 20-1342)
# Sequence (P21860 20-1342): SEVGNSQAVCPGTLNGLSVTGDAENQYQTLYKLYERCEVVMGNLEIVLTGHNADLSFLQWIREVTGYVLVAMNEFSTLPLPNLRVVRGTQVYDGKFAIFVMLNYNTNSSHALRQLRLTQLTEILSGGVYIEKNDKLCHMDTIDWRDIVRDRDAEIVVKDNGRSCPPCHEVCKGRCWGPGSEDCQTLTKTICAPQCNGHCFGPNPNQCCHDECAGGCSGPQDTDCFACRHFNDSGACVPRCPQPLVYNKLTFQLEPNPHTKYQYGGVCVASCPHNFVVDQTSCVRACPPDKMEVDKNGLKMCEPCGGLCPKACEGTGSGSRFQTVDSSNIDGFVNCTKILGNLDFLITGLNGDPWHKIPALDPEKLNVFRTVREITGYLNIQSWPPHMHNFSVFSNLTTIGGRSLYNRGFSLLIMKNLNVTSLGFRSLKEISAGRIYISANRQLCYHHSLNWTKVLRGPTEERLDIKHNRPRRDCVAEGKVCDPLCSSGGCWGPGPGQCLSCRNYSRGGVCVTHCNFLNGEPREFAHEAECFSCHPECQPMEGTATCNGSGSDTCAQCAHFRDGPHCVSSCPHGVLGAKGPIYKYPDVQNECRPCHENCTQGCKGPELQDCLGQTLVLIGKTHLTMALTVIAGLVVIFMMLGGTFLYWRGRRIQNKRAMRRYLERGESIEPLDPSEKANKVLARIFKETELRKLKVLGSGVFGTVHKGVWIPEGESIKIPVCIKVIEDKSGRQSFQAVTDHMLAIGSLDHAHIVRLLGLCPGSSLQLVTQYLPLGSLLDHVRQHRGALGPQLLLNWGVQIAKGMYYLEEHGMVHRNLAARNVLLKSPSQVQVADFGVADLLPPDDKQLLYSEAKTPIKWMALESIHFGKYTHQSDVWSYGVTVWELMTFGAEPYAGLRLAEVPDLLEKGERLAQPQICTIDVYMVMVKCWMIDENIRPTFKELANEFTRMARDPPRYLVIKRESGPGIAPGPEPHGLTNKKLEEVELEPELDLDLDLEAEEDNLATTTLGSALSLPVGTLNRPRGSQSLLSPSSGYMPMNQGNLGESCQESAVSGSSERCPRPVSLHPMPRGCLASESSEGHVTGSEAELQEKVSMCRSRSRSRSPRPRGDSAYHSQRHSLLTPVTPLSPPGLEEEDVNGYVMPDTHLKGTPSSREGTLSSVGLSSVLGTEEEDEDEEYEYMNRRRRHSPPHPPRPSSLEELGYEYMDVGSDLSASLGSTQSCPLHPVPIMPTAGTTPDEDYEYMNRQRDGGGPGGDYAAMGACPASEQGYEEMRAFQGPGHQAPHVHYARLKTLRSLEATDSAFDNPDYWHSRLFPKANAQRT
# TEST DETAILS: cell-based or functional assay
SK-Br-3 pHER3 % inhibition overview
Field format: number, assumed %, no unit text.

Completed entries (count: 4):
* MOR13766 (antibody, human IgG1, kappa, V domains shown, tested as IgG) VH: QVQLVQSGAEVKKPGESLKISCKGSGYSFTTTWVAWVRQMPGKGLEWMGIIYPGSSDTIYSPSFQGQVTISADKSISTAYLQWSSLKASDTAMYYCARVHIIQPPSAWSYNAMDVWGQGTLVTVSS VL: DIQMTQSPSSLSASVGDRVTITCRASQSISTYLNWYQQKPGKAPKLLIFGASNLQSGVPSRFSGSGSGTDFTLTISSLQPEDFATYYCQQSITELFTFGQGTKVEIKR | 79
* MOR13870 (antibody, human IgG1, kappa, V domains shown, tested as IgG) VH: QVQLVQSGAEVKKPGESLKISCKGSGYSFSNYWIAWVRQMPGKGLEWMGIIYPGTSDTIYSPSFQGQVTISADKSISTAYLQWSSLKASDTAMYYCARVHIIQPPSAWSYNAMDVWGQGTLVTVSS VL: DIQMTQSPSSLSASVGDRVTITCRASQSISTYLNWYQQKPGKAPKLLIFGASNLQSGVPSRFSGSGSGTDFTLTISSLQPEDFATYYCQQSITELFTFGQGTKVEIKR | 81
* MOR12510 (antibody, human IgG1, kappa, V domains shown, tested as IgG) VH: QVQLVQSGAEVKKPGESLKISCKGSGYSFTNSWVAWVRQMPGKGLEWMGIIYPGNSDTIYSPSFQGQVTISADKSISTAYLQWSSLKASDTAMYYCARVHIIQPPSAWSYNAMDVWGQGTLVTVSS VL: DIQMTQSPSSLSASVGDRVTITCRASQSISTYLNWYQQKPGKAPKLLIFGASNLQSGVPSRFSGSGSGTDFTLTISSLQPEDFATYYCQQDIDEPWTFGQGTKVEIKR | 78
* MOR13765 (antibody, human IgG1, kappa, V domains shown, tested as IgG) VH: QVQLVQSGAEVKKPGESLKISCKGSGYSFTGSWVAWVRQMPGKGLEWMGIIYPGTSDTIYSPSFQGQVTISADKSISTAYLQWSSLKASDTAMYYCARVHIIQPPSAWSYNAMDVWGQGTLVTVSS VL: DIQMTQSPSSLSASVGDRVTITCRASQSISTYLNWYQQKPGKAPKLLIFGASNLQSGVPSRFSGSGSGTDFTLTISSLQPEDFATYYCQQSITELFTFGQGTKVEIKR | 79

What SK-Br-3 pHER3 % inhibition value was documented for this binder, MOR13756 (antibody, human IgG1, kappa, V domains shown, tested as IgG) VH: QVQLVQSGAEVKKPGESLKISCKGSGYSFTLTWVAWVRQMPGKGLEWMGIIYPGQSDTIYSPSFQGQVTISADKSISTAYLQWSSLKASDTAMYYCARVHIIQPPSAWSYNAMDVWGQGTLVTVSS VL: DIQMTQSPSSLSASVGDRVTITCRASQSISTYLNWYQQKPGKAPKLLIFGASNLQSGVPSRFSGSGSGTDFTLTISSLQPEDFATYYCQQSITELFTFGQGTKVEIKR ?
78
